What IC50 was measured for each of the following?
system: Target C; assay: RT-qPCR canonical junction panel assay, Target C mRNA; format: cell-based; settings: Table 4, read-out: Target C IC50 (decrease in CJ mRNA levels)

>>> measured("CC(C)N[C@H]1CCN(c2ccc3nc(-c4cc5cn(C)nc5cc4O)ccc3n2)C1")
"100 to 1000 nM"
>>> measured("Cc1nc2cc(O)c(-c3ccc4nc(N5C[C@@H](C)N[C@@H](C6CC6)C5)ccc4n3)cc2o1")
"100 to 1000 nM"
>>> measured("C[C@@H]1CN(c2ccc3nc(-c4cc5cn(C)nc5c(F)c4O)nc(C#N)c3c2)C[C@H](C)N1")
"100 to 1000 nM"
>>> measured("COCc1nc2cc(O)c(-c3ccc4nc(N5CCC(NC(C)(C)C)C5)ccc4n3)cc2o1 (stereo not shown)")
"100 to 1000 nM"
>>> measured("Cc1c(O)c(-c2ccc3nc(N4CCC(NC5(CF)CC5)C4)ccc3n2)cc2cn(C)nc12 (stereo not shown)")
"< 100 nM"
>>> measured("Cn1cc2cc(-c3nc(C#N)c4cc(N5CCNCC5)ccc4n3)c(O)c(F)c2n1")
"1000 to 10000 nM"

Now look at this entry.
Task: Value lookup for IC50; key = Cn1cc2cc(-c3ccc4nc(N5CC[C@@H](N)C5)ccc4n3)c(O)c(F)c2n1 (single isomer, unassigned)
Output: 100 to 1000 nM
